target: BRD4 BD1 (Homo sapiens); construct: made in house; experiment: AlphaScreen binding assay, BRD4 Bromodomain 1
pIC50: −log10 of the molar value.
Quantity: pIC50

CC(=O)N1c2ccc(-c3ccc(N4CCCC4=O)cc3)cc2N(C(=O)OC2CCCCC2)C[C@@H]1C [Example I-1267] :: 6.00 to 7.00

Challenge: Quick one: pIC50 of CC(=O)N1c2ccc(-c3cnn(C4CC4)c3)cc2N(C(=O)Oc2cc(F)ccc2F)C[C@@H]1C [Example I-503] ?
Response given: 6.00 to 7.00

Challenge: Record request: pIC50 value, item CCOC(=O)N1C[C@H](C)N(C(C)=O)c2ccc(-c3ccc(S(=O)(=O)CC(C)C)cc3)cc21 [Example I-1080]
Response given: 5.00 to 6.00

Challenge: Please look up its pIC50: CC(=O)N1c2ccc(-c3cnn(C4CCCS(=O)(=O)C4)c3)cc2N(C(=O)C2CC2)C[C@@H]1C (stereo partly shown) [Example I-1310]
Response given: 6.00 to 7.00
